meta.source: ChEMBL document CHEMBL2021782

Assay: Selectivity ratio of CC50 for human MRC5 SV2 cells to IC50 for chloroquine-sensitive Plasmodium falciparum GHA strain
Format: ADME, cell-based
Details: read-out: Ratio CC50/IC50
EXPERIMENTAL ENDPOINT: selectivity ratio

> print(dat)
                               entry.smiles  cmp  observed.result
1  O=C1[C@H]2Cc3c([nH]c4ccccc34)[C@@H](c3ccc4c(c3)OCO4)N2C(=O)CN1[C@@H]1CCN(Cc2ccc3c(c2)OCO3)C1    =               78
2  CCCCN1CC[C@@H](N2CC(=O)N3[C@H](c4ccc5c(c4)OCO5)c4[nH]c5ccccc5c4C[C@@H]3C2=O)C1    <                1
3  CC(C)(C)OC(=O)NCCN1CC[C@@H](N2CC(=O)N3[C@H](c4ccc5c(c4)OCO5)c4[nH]c5ccccc5c4C[C@@H]3C2=O)C1    =              154

====

// values below are reported IC50
Biological target: cGMP-specific 3',5'-cyclic phosphodiesterase (Bos taurus)
EXPERIMENTAL ENDPOINT: IC50 (nM)

> print(dat)
                               entry.smiles  units.label  cmp  observed.result
1  O=C1[C@H]2Cc3c([nH]c4ccccc34)[C@@H](c3ccc4c(c3)OCO4)N2C(=O)CN1[C@@H]1CCN(Cc2ccccn2)C1           nM    =                2
2  O=C1[C@H]2Cc3c([nH]c4ccccc34)[C@@H](c3ccc4c(c3)OCO4)N2C(=O)CN1[C@@H]1CCN(Cc2ccc3c(c2)OCO3)C1           nM    =                7
3  O=C1[C@H]2Cc3c([nH]c4ccccc34)[C@@H](c3ccc4c(c3)OCO4)N2C(=O)CN1[C@@H]1CCN(Cc2ccccc2)C1           nM    =                5
4  COc1ccc([C@@H]2c3[nH]c4ccccc4c3C[C@@H]3C(=O)N([C@@H]4CCN(Cc5nccn5C)C4)CC(=O)N23)cc1OC           nM    =             5600
5  COc1ccc([C@@H]2c3[nH]c4ccccc4c3C[C@@H]3C(=O)N([C@@H]4CCN(Cc5ccccc5)C4)CC(=O)N23)cc1OC           nM    =             5200
6  COc1cc([C@@H]2c3[nH]c4ccccc4c3C[C@@H]3C(=O)N([C@@H]4CCN(Cc5ccccc5)C4)CC(=O)N23)ccc1O           nM    >             1000

====

Assay: Cytotoxicity against human MRC5 SV2 cells after 72 hrs using resazurin by fluorimetry
Assay type: cell-based
EXPERIMENTAL ENDPOINT: CC50 at 72 h

> print(dat)
                                entry.smiles  experimental.endpoint  observed.result
 1  O=C1[C@H]2Cc3c([nH]c4ccccc34)[C@@H](c3ccc4c(c3)OCO4)N2C(=O)CN1[C@@H]1CCN(Cc2ccc3c(c2)OCO3)C1           CC50 at 72 h            78 µM
 2  COc1ccc([C@@H]2c3[nH]c4ccccc4c3C[C@@H]3C(=O)N([C@@H]4CCN(Cc5ccc6c(c5)OCO6)C4)CC(=O)N23)cc1OC           CC50 at 72 h            25 µM
 3  O=C1[C@H]2Cc3c([nH]c4ccccc34)[C@@H](c3ccc4c(c3)OC(F)(F)O4)N2C(=O)CN1[C@@H]1CCN(Cc2ccccc2)C1           CC50 at 72 h             8 µM
 4  O=C1[C@H]2Cc3c([nH]c4ccccc34)[C@@H](c3ccc4nsnc4c3)N2C(=O)CN1[C@@H]1CCN(Cc2ccccc2)C1           CC50 at 72 h            30 µM
 5  COc1ccc([C@@H]2c3[nH]c4ccccc4c3C[C@@H]3C(=O)N([C@@H]4CCN(Cc5nccn5C)C4)CC(=O)N23)cc1OC           CC50 at 72 h            37 µM
 6  CCCCN1CC[C@@H](N2CC(=O)N3[C@H](c4ccc5c(c4)OCO5)c4[nH]c5ccccc5c4C[C@@H]3C2=O)C1           CC50 at 72 h           < 1 µM
 7  O=C1[C@H]2Cc3c([nH]c4ccccc34)[C@@H](c3ccc(Cl)nc3)N2C(=O)CN1[C@@H]1CCN(Cc2ccccc2)C1           CC50 at 72 h            14 µM
 8  O=C1[C@H]2Cc3c([nH]c4ccccc34)[C@@H](c3ccc4nnnn4c3)N2C(=O)CN1[C@@H]1CCN(Cc2ccccc2)C1           CC50 at 72 h            21 µM
 9  Cn1ccnc1CN1CC[C@@H](N2CC(=O)N3[C@H](c4ccc5c(c4)OCO5)c4[nH]c5ccccc5c4C[C@@H]3C2=O)C1           CC50 at 72 h            50 µM
10  O=C1[C@H]2Cc3c([nH]c4ccccc34)[C@@H](c3ccc4c(c3)OCCO4)N2C(=O)CN1[C@@H]1CCN(Cc2ccccc2)C1           CC50 at 72 h          > 64 µM
11  CN(C)C(=O)CN1CC[C@@H](N2CC(=O)N3[C@H](c4ccc5c(c4)OCO5)c4[nH]c5ccccc5c4C[C@@H]3C2=O)C1           CC50 at 72 h          > 32 µM
12  O=C1[C@H]2Cc3c([nH]c4ccccc34)[C@@H](c3ccc4c(c3)OCO4)N2C(=O)CN1[C@@H]1CCN(CCCCCO)C1           CC50 at 72 h             3 µM
13  COc1ccc([C@@H]2c3[nH]c4ccccc4c3C[C@@H]3C(=O)N([C@@H]4CCN(Cc5ccccc5)C4)CC(=O)N23)cc1O           CC50 at 72 h            22 µM
14  O=C1[C@H]2Cc3c([nH]c4ccccc34)[C@@H](c3ccc4c(c3)OCO4)N2C(=O)CN1C1CCN(Cc2ccccc2)CC1           CC50 at 72 h             7 µM
15  COc1ccc([C@@H]2c3[nH]c4ccccc4c3C[C@@H]3C(=O)N([C@@H]4CCN(CCNC(=O)OC(C)(C)C)C4)CC(=O)N23)cc1OC           CC50 at 72 h            10 µM
16  O=C1[C@H]2Cc3c([nH]c4ccccc34)[C@@H](c3ccc4c(c3)OCO4)N2C(=O)CN1[C@@H]1CCN(CC2CCCC2)C1           CC50 at 72 h            22 µM
17  O=C1[C@H]2Cc3c([nH]c4ccccc34)[C@@H](c3ccc4c(c3)OCO4)N2C(=O)CN1[C@@H]1CCN(CCOc2ccccc2)C1           CC50 at 72 h            11 µM
18  CN(C)c1ccc(CN2CC[C@@H](N3CC(=O)N4[C@H](c5ccc6c(c5)OCO6)c5[nH]c6ccccc6c5C[C@@H]4C3=O)C2)cc1           CC50 at 72 h           < 1 µM
19  O=C1[C@H]2Cc3c([nH]c4ccccc34)[C@@H](c3ccc4c(c3)OCO4)N2C(=O)CN1[C@@H]1CCN(Cc2ccccc2)C1           CC50 at 72 h            10 µM
20  O=C1[C@H]2Cc3c([nH]c4ccccc34)[C@@H](c3ccc4nonc4c3)N2C(=O)CN1[C@@H]1CCN(Cc2ccccc2)C1           CC50 at 72 h          > 64 µM
21  O=C1[C@H]2Cc3c([nH]c4ccccc34)[C@@H](c3ccc(OC(F)F)cc3)N2C(=O)CN1[C@@H]1CCN(Cc2ccccc2)C1           CC50 at 72 h          > 64 µM
22  CC(C)(C)OC(=O)NCCN1CC[C@@H](N2CC(=O)N3[C@H](c4ccc5c(c4)OCO5)c4[nH]c5ccccc5c4C[C@@H]3C2=O)C1           CC50 at 72 h           154 µM
23  O=C1[C@H]2Cc3c([nH]c4ccccc34)[C@@H](c3ccc4c(c3)OCO4)N2C(=O)CN1[C@@H]1CCN(Cc2ccccn2)C1           CC50 at 72 h            13 µM
24  COc1cc([C@@H]2c3[nH]c4ccccc4c3C[C@@H]3C(=O)N([C@@H]4CCN(Cc5ccccc5)C4)CC(=O)N23)ccc1O           CC50 at 72 h            23 µM
25  CN1CC(=O)N2[C@H](c3ccc4c(c3)OCO4)c3[nH]c4ccccc4c3C[C@@H]2C1=O           CC50 at 72 h          > 64 µM
26  O=C1[C@H]2Cc3c([nH]c4ccccc34)[C@@H](c3ccc4c(c3)OCO4)N2C(=O)CN1[C@@H]1CCN(CCc2ccccc2)C1           CC50 at 72 h             1 µM
